Cited source for all entries: patent US11964052B2

experiment: Lipid nanoparticle size and polydispersity by dynamic light scattering (Malvern Zetasizer Nano ZS); assay type: physicochemical; conditions: LNP of cationic lipid/DSPC/cholesterol/PEG-lipid 50:10:38.5:1.5 with mRNA
Classification field: Yes = polydispersity at or over 0.08; No = polydispersity under 0.08.

- compound: "CCCCCCCCCCCCOCC(CN(CCCCCC(=O)OCC(CCCCCC)CCCCCCCC)CCN(CCO)C1CCCC1)OCCCCCCCC (stereo not shown)"
  assigned class: "Yes"
- compound: "CCCCCCCCCCC(=O)OCC(CCCCN(CCO)C1CCCCCC1)COC(=O)CC(CCCCCC)CCCCCCCC (stereo not shown)"
  assigned class: "No"
- compound: "CCCCCCCCCCCCOCC(CN(CCCCCC(=O)OCC(CCCCCC)CCCCCCCC)CCN(CCO)C1CCCC1)OCCCCCC (stereo not shown)"
  assigned class: "Yes"
- compound: "CCCCCCCCCCCCOCC(CN(CCCCCC(=O)OCC(CCCCCC)CCCCCCCC)CCN(CCO)C1CCC1)OCCCCCCCCCCCC (stereo not shown)"
  assigned class: "Yes"
- compound: "CCCCCCCCC(CCCCCC)CC(=O)OCC(CCCCN(CCCC)CCN(CCO)C1CCC1)COC(=O)CC(CCCCCC)CCCCCCCC (stereo not shown)"
  assigned class: "No"
- compound: "CCCCCCCCC(CCCCCC)CC(=O)OCC(CCCCN(CCN(CCC)CCO)C1CCC1)COC(=O)CC(CCCCCC)CCCCCCCC (stereo not shown)"
  assigned class: "No"
- compound: "CCCCCCCCC(CCCCCCCC)CC(=O)OCC(CCCCN(C)CCN(CCO)C1CCC1)COC(=O)CC(CCCCCCCC)CCCCCCCC"
  assigned class: "No"
- compound: "CCCCCCCCCCCCOCC(CN(CCCCCC(=O)OCC(CCCCCC)CCCCCCCC)CCN(CCO)C1CCCCCC1)OCCCCCCCCCCCC (stereo not shown)"
  assigned class: "Yes"
- compound: "CCCCCCCCC(CCCCCCCC)COC(=O)CCOCC(CN(C)CCN(CCO)C1CCCCCC1)OCCC(=O)OCC(CCCCCCCC)CCCCCCCC (stereo not shown)"
  assigned class: "Yes"
- compound: "CCCCCCCCC(CCCCCCCC)CNC(=O)CCOCC(CN(C)CCN(CCO)C1CCCCCC1)OCCC(=O)NCC(CCCCCCCC)CCCCCCCC (stereo not shown)"
  assigned class: "No"
- compound: "CCCCCCCCCCCCOCC(CN(CCCCCC(=O)OCC(CCCCCC)CCCCCCCC)CCN(CCO)C1CCC1)OCCCCCCCC (stereo not shown)"
  assigned class: "No"
- compound: "CCCCC/C=C\\C/C=C\\CCCCCCCC(=O)OCC(CCCCN(CCO)C1CCCC1)COC(=O)CC(CCCCCC)CCCCCCCC (stereo not shown)"
  assigned class: "No"
- compound: "CCCCCCCCCCCCOCC(CN(CCCCCCCCCCCC)CCN(CCO)C1CCC1)OCCCCCCCCCCCC (stereo not shown)"
  assigned class: "Yes"
- compound: "CCCCC/C=C\\C/C=C\\CCCCCCCC(=O)OCC(CN(C)CCN(CCO)C1CCC1)OC(=O)CCCCCCC/C=C\\C/C=C\\CCCCC (stereo not shown)"
  assigned class: "No"
- compound: "CCCCCCCCCOC(=O)CCOCC(CN(C)CCN(CCO)C1CCC1)OCCC(=O)OCCCCCCCCC (stereo not shown)"
  assigned class: "Yes"
- compound: "CCCCCCCCCCCCOCC(O)CN(CCCCCC(=O)OCC(CCCCCC)CCCCCCCC)CCN(C)C (stereo not shown)"
  assigned class: "No"
- compound: "CCCCCCCCCCCCOCC(CN(CCCCCC(=O)OCC(CCCCCC)CCCCCCCC)CCN(CCO)C1CCCCCC1)OCCCCCCCC (stereo not shown)"
  assigned class: "Yes"
- compound: "CCCCCCCCCCCCOCC(CN(CCCCCC(=O)OCC(CCCCCC)CCCCCCCC)CCN(CCO)C1CCCCCC1)OCCCCCC (stereo not shown)"
  assigned class: "Yes"
- compound: "CCCCCCCCCCCCOCC(CN(CCO)C1CCC1)OCCCCCCCCCCCC (stereo not shown)"
  assigned class: "Yes"
- compound: "CCCCCCCCCCCCOCC(CN(CCCCCC(=O)OCC(CCCCCC)CCCCCCCC)CCN1CCCCC1)OC(C)=O (stereo not shown)"
  assigned class: "Yes"
- compound: "CCCCCCCCC(CCCCCC)COC(=O)CCOCC(CN(CCC)CCN(CCO)C1CCCCCC1)OCCC(=O)OCC(CCCCCC)CCCCCCCC (stereo not shown)"
  assigned class: "No"
- compound: "CCCCCCCCCCCCOCC(CN(CCCCCC(=O)OCC(CCCCCC)CCCCCCCC)CCN1CCCCC1)OC(=O)CCCCC (stereo not shown)"
  assigned class: "Yes"
- compound: "CCCCCCCCCCCCOCC(CN(CCCCCC(=O)OCC(CCCCCC)CCCCCCCC)CCN(CCO)C1CCC1)OC(C)=O (stereo not shown)"
  assigned class: "Yes"
- compound: "CCCCCCCCCCCCOCC(CN(CCCCCC(=O)OCC(CCCCCC)CCCCCCCC)CCN(CCO)C1CCCCC1)OCCCCCCCCCCCC (stereo not shown)"
  assigned class: "Yes"
- compound: "CCCCCCCCCCC(=O)OCC(CCCCN(CCO)C1CCCC1)COC(=O)CC(CCCCCC)CCCCCCCC (stereo not shown)"
  assigned class: "No"
- compound: "CCCCCCCCCCCCCCCCOCC(CN(CCCCCC(=O)OCCCCCCCCCC)CCN(CCO)C1CCC1)OCCCCCC (stereo not shown)"
  assigned class: "No"
